target: BCL2 WT (Homo sapiens (Human)); experiment: TR-FRET competitive binding assay, BCL2 WT; details: Ki determined from IC50, read-out: TR_FRET EKI_Bcl2 WT
Sequence (P10415 other isoform, or with tags, fused parts or gaps): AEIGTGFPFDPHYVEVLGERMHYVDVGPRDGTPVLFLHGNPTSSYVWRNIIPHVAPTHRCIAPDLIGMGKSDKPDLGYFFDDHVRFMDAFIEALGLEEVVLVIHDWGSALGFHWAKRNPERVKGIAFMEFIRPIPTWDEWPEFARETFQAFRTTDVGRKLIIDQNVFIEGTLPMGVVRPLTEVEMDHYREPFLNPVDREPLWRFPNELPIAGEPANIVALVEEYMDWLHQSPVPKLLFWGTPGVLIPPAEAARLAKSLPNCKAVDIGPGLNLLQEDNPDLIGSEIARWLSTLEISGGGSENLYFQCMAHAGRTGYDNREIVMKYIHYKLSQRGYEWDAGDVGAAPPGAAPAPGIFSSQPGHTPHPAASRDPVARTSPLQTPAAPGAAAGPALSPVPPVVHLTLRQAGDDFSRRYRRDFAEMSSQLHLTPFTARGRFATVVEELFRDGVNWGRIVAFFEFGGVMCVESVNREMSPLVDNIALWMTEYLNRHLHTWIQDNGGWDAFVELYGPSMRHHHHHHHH
pKi: −log10 of the molar value.
readout-type: pKi

INSERT INTO assay_data (molecule, readout_type, numeric_result) VALUES
  ('Cc1c(N(C(=O)c2cc(-c3cc4c(cc3C(=O)N3Cc5ccccc5C[C@H]3CN3CCC[C@H](C)C3)CN(C(=O)Cc3ccc(OCCN5CCOCC5)cc3F)CC4)n(C)c2C)c2ccc(O)cc2)cc(C#N)n1C [Example 107]', 'pKi', 10.05),
  ('Cc1c(N(C(=O)c2cc(-c3cc4c(cc3C(=O)N3Cc5ccccc5C[C@H]3CN3CCCCC3)CN(C(=O)Cc3ccc(COCC5CCOCC5)cc3)CC4)n(C)c2C)c2ccc(O)cc2)cc(C#N)n1C [Example 149]', 'pKi', 10.00),
  ('Cc1c(N(C(=O)c2cc(-c3cc4c(cc3C(=O)N3Cc5ccccc5C[C@H]3CN3CCCC[C@H]3C)CN(C(=O)Cc3ccc(OCCN5CCOCC5)cc3F)CC4)n(C)c2C)c2ccc(O)cc2)cc(C#N)n1C [Example 123]', 'pKi', 10.15),
  ('Cc1c(C(=O)N(c2ccc(O)cc2)c2cnn(CC(C)C)c2)cc(-c2cc3c(cc2C(=O)N2Cc4ccccc4C[C@H]2C)CN(C(=O)Cc2ccc(OCCN4CCOCC4)cc2)CC3)n1C [Example 144]', 'pKi', 10.00),
  ('Cc1c(N(C(=O)c2cc(-c3cc4c(cc3C(=O)N3Cc5ccccc5C[C@H]3CN(C(C)C)C(C)C)CN(C(=O)Cc3ccc(OCCN5CCOCC5)cc3F)CC4)n(C)c2C)c2ccc(O)cc2)cc(C#N)n1C [Example 152]', 'pKi', 9.80);

I: COc1ccc(N(C(=O)c2cc(-c3cc4c(cc3C(=O)N3Cc5ccccc5C[C@H]3C)CN(C(=O)Cc3ccc(OCCN5CCOCC5)cc3)CC4)n(C)c2C)c2ccc(O)cc2)cc1C#N [Example 81]
II: Cc1c(C(=O)N(c2ccc(O)cc2)c2cc(C#N)n(C(F)F)c2C)cc(-c2cc3c(cc2C(=O)N2Cc4ccccc4C[C@H]2CN2CCCCC2)CN(C(=O)Cc2ccc(OCCN4CCC(F)CC4)cc2F)CC3)n1C [Example 158]
III: Cc1c(N(C(=O)c2cc(-c3cc4c(cc3C(=O)N3Cc5ccccc5C[C@H]3CN3CCCCC3)CN(C(=O)Cc3ccc(OCCN(C)C5COC5)cc3F)CC4)n(C)c2C)c2ccc(O)cc2)cc(C#N)n1C [Example 105]
Sort ascending by pKi. Please, when replying, give the labels in the order that was requested.
I, II, III
